molecular target: Abl (Homo sapiens); construct: purchased Merck-Millipore; test: Abl enzymatic assay (ADP-Glo kinase assay); format: biochemical; settings: 10 µM
Sequence (P00519 whole entry, species assumed): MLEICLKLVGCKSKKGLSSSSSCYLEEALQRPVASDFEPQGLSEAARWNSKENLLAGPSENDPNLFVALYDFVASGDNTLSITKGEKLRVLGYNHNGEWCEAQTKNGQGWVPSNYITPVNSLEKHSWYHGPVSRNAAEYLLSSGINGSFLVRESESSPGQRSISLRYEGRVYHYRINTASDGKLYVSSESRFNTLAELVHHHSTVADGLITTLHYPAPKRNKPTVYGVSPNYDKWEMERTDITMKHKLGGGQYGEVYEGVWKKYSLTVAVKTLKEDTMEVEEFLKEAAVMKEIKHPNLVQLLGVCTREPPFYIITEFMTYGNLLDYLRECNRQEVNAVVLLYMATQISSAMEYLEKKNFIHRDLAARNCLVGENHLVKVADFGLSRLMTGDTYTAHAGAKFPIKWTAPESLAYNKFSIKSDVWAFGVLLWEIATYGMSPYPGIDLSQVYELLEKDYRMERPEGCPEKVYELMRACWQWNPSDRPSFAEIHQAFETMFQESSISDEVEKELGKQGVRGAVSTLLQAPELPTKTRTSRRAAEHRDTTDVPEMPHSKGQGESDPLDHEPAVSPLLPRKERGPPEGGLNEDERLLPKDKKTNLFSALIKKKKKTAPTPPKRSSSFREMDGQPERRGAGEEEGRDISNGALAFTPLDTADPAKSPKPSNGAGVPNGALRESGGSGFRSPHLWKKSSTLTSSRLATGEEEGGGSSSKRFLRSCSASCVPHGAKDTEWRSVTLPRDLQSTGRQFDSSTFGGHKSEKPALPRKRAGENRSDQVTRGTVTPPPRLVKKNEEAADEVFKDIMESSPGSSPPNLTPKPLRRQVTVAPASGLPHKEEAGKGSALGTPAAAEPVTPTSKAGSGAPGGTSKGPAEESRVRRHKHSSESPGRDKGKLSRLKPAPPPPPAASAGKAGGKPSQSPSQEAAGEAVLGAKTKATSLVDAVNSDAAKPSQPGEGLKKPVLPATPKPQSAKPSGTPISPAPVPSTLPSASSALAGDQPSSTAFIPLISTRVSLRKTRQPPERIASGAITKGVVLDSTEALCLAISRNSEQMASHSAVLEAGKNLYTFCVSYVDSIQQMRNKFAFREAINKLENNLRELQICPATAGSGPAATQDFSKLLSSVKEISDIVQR
inhibition at 10 µM listing for selected molecules.
Write the value in % as a bare number.

Recorded inhibition at 10 µM, per entry:
CSc1nc(Nc2ccccc2)c2cnn(CC(Cl)c3ccc(F)cc3)c2n1 (stereo not drawn) [2p]
12
CSc1nc(Nc2ccc(Cl)cc2)c2cnn(CC(Cl)c3ccccc3)c2n1 (stereo not drawn) [2b]
23
Oc1cc(Nc2nc(SCCN3CCOCC3)nc3c2cnn3CC(Cl)c2ccccc2)c(F)cc1F (stereo not drawn) [2g]
83
Cl.Oc1cc(Nc2nc(SCCN3CCOCC3)nc3c2cnn3CC(Cl)c2ccccc2)ccc1F (stereo not drawn) [2f]
67
Cc1nc(Nc2ccccc2)c2cnn(CC(Cl)c3ccc(Cl)cc3)c2n1 (stereo not drawn) [2q]
25

IN: Given the entry FC(F)(F)c1nc(Nc2cccc(Cl)c2)c2cnn(CC(Cl)c3ccccc3)c2n1 (stereo not drawn) [2m] , report its measured inhibition at 10 µM.
OUT: 18

IN: Reported inhibition at 10 µM for Clc1ccccc1Nc1nc(SCCN2CCOCC2)nc2c1cnn2CC(Cl)c1ccccc1 (stereo not drawn) [2e] : what is it?
OUT: 26.3

IN: Name the reported inhibition at 10 µM value associated with the molecule FC(F)(F)c1nc(Nc2ccccc2)c2cnn(CC(Cl)c3ccccc3)c2n1 (stereo not drawn) [2k]
OUT: 39

IN: Given the molecule CCSc1nc(Nc2ccccc2)c2cnn(CC(Cl)c3ccccc3)c2n1 (stereo not drawn) [2c] , what is its reported inhibition at 10 µM?
OUT: 35

IN: Request the reported inhibition at 10 µM associated with ClC(Cn1ncc2c(Nc3ccccc3)nc(-c3ccccc3)nc21)c1ccccc1 (stereo not drawn) [2n]
OUT: 18

IN: For the molecule CC(C)Sc1nc(Nc2cccc(Cl)c2)c2cnn(CC(Cl)c3ccccc3)c2n1 (stereo not drawn) [2d] , what inhibition at 10 µM is on record?
OUT: 24

IN: What value of inhibition at 10 µM has been reported for the following molecule? CSc1nc(Nc2ccccc2Cl)c2cnn(CC(Cl)c3ccccc3)c2n1 (stereo not drawn) [2a]
OUT: 72
